Hey, just so you know, these numbers are from patent US20260209249A1.

Measured IC50, listed per entry.
- System: KRAS G12D mutant pancreatic cancer cell line AsPC-1
- Test: Cell viability assay using KRAS G12D mutant cells (AsPC-1, 3D culture, celltiter-glo 3D)
- Assay type: cell-based
- Condition details: Homo sapiens, ASPC1, 5th day after compound treatment
- Protocol: Test Example 3: Cell Viability Assay Using KRAS G12D Mutant Cells The KRAS G12D mutant pancreatic cancer cell line AsPC-1 was obtained from the Korean Cell Line Bank (KCLB) and maintained in 100-mm dishes or T75 (75 cm^2) flasks using RPM11640+10% fetal bovine serum (FBS)+1% Penicillin-Streptomycin medium. The cells were cultured at 37° C. with 5% CO2. The number of viable cells was counted using Countess (Invitrogen). […]
Assay readout: IC50 (nM)

Compound	Reading
CCc1c(F)ccc2cc(O)cc(-c3c(F)c4nc(OC[C@@]56CCCN5C[C@H](F)C6)nc(N5C[C@H]6CC[C@@H](C5)N6)c4c4cn(C)nc34)c12 [Example 93]	38
Cn1cc2c(n1)c(-c1cc(O)cc3ccc(F)c(F)c13)c(F)c1nc(OC[C@@]34CCCN3C/C(=C\F)C4)nc(N3C[C@H]4CC[C@@H](C3)N4)c12 [Example 86]	48
CCc1c(F)ccc2cc(O)cc(-c3c(F)c4nc(OC[C@@]56CCCN5CC(=C(F)F)C6)nc(N5C[C@H]6CC[C@@H](C5)N6)c4c4cn(C)nc34)c12 [Example 97]	7
C#Cc1c(F)ccc2cc(O)cc(-c3c(F)c4nc(OC[C@@]56CCCN5C[C@H](F)C6)nc(N5CC6CCC5CN6)c4c4cn(C)nc34)c12 (stereo partly shown) [Example 88]	734

====

- Study target: GDP-KRAS G12D mutant protein (Homo sapiens, UniProt P01116, G12D)
- Construct: purchased Daegu Gyeongbuk Medical Innovation Foundation (DGMIF), made to order
- Test: Differential scanning fluorimetry (DSF) binding affinity to GDP-KRAS G12D mutant protein
- Condition details: DSF thermal shift, 10 μM compound, 4 μg KRAS protein
Measured GDP-KRAS G12D (ΔTmD, ° C.), listed per entry.

Molecule	Unit spec	GDP-KRAS G12D (ΔTmD, ° C.)
C#Cc1c(F)ccc2cc(O)cc(-c3c(F)c4nc(OC[C@]56CC(=C)CN5C[C@@H](F)C6)nc(N5C[C@H]6CC[C@@H](C5)N6)c4c4cn(C)nc34)c12 [Example 100]	°C	14.50
C#Cc1c(F)ccc2cc(O)cc(-c3c(F)c4nc(OCC5(CN6CCC7(CC6)CC7(F)F)CC5)nc(N5C[C@H]6CC[C@@H](C5)N6)c4c4cn(C)nc34)c12 [Example 87]	°C	14.94
C#Cc1c(F)ccc2cc(N)cc(-c3cc4nc(OC[C@@]56CCCN5C[C@H](F)C6)nc(N5C[C@H]6CC[C@@H](C5)N6)c4n4ccnc34)c12 [Example 24]	°C	5.48
C#Cc1c(F)ccc2cc(N)cc(-c3cc4nc(OC[C@@]56CCCN5C/C(=C\F)C6)nc(N5C[C@H]6CC[C@@H](C5)N6)c4n4ccnc34)c12 [Example 36]	°C	7.57
Cc1cc2c(o1)c(-c1ccc(F)c3sc(N)nc13)c(F)c1nc(OC[C@@]34CCCN3C[C@H](F)C4)nc(N3C[C@H]4CC[C@@H](C3)N4)c12 [Example 55]	°C	3.24
C#Cc1c(F)ccc2cc(N)cc(-c3cc4nc(OC[C@@]56CCCN5C[C@H](F)C6)nc(N5C[C@H]6CC[C@@H](C5)N6)c4c4cn(C)nc34)c12 [Example 71]	°C	8.14
C#Cc1c(F)ccc2cc(O)cc(-c3cc4nc(OCC5(CN6CC[C@@H](F)C6)CCC5)nc(N5C[C@H]6CC[C@@H](C5)N6)c4n4ccnc34)c12 [Example 40]	°C	5.95
C#Cc1c(F)ccc2cc(O)cc(-c3c(F)c4nc(N5CC(N(C)C)C5)nc(N5C[C@H]6CC[C@@H](C5)N6)c4c4cn(C)nc34)c12 [Example 72]	°C	−0.29
C#Cc1c(F)ccc2cccc(-c3cc4nc(OC[C@@]56CCCN5C[C@H](F)C6)nc(N5C[C@H]6CC[C@@H](C5)N6)c4n4ccnc34)c12 [Example 28]	°C	3.53
Cn1cc2c(n1)c(-c1cc(O)cc3ccc(F)c(F)c13)cc1nc(OC[C@@]34CCCN3C[C@H](F)C4)nc(N3C[C@H]4CC[C@@H](C3)N4)c12 [Example 70]	°C	6.34
Cc1cc2c(o1)c(-c1cc(O)cc3ccccc13)c(F)c1nc(OC[C@@]34CCCN3C[C@H](F)C4)nc(N3C[C@H]4CC[C@@H](C3)N4)c12 [Example 43]	°C	9.30

====

- Study target: GppNHp-KRAS G12D mutant protein (Homo sapiens, UniProt P01116, G12D)
- Construct: purchased Daegu Gyeongbuk Medical Innovation Foundation (DGMIF), made to order
- Test: Differential scanning fluorimetry (DSF) binding affinity to GppNHp-KRAS G12D mutant protein
- Condition details: DSF thermal shift, 10 μM compound, 4 μg KRAS protein, 50 mM HEPES (pH 7.5)
Measured GppNHp-KRAS G12D (ΔTmD, ° C.), listed per entry.
Assay readout: GppNHp-KRAS G12D (ΔTmD, ° C.) (°C)

> print(dat)
                                    molecule  unit.spec  reading
 1  CCc1c(F)ccc2cc(O)cc(-c3cc4nc(OC[C@@]56CCCN5CC(=C(F)F)C6)nc(N5C[C@H]6CC[C@@H](C5)N6)c4n4ccnc34)c12 [Example 109]         °C     4.28
 2  Cc1cc2c(o1)c(-c1cc(O)cc3ccccc13)cc1nc(OC[C@@]34CCCN3C[C@H](F)C4)nc(N3C[C@H]4CC[C@@H](C3)N4)c12 [Example 41]         °C     0.87
 3  Cc1cc2[nH]ncc2c(-c2cc3nc(OC[C@@]45CCCN4C[C@H](F)C5)nc(N4[C@@H]5CC[C@H]4CNC5)c3n3ccnc23)c1C(F)(F)F [Example 18]         °C     1.01
 4  C#Cc1c(F)ccc2cc(O)cc(-c3cc4nc(OC[C@@]56CCCN5C[C@H](F)C6)nc(N5C[C@H]6CC[C@@H](C5)N6)c4n4ccnc34)c12 [Example 2]         °C     5.61
 5  CCc1c(F)ccc2cc(O)cc(-c3c(F)c4nc(OC[C@@]56CCCN5C/C(=C\F)C6)nc(N5C[C@H]6CC[C@@H](C5)N6)c4c4cn(C)nc34)c12 [Example 85]         °C    12.43
 6  C#Cc1c(F)ccc2cc(O)cc(-c3cc4nc(OCC5(CN6CCC7(CC6)CC7(F)F)CC5)nc(N5C[C@H]6CC[C@@H](C5)N6)c4c4cn(C)nc34)c12 [Example 73]         °C     5.60
 7  C#Cc1c(F)ccc2cc(O)cc(-c3c(F)c4nc(OC[C@@]56CCCN5C[C@H](F)C6)nc(N5C[C@H]6CC[C@@H](C5)N6)c4c4cn(C)nc34)c12 [Example 80]         °C    11.13
 8  CCc1c(F)ccc2cc(O)cc(-c3c(F)c4nc(OC[C@@]56CCCN5C[C@H](F)C6)nc(N5C[C@H]6CC[C@@H](C5)N6)c4c4cn(C)nc34)c12 [Example 93]         °C     8.72
 9  C#Cc1c(F)ccc2cc(O)cc(-c3cc4nc(OCC5(CN6C[C@H]7C[C@@H]6CO7)CC5)nc(N5C[C@H]6CC[C@@H](C5)N6)c4n4ccnc34)c12 [Example 10]         °C     2.79
10  C#Cc1c(F)ccc2cc(O)cc(-c3cc4nc(OC[C@]56CC(=C)CN5C[C@@H](F)C6)nc(N5CC6CCC(C5)N6)c4n4ccnc34)c12 [Example 39]         °C     5.61
11  C#Cc1c(F)ccc2cccc(-c3cc4nc(OC[C@@]56CCCN5C[C@H](F)C6)nc(N5C[C@H]6CC[C@@H](C5)N6)c4n4ccnc34)c12 [Example 28]         °C     0.27

====

- Study target: GDP-KRAS G12D mutant protein (Homo sapiens, UniProt P01116, G12D)
- Construct: purchased Daegu Gyeongbuk Medical Innovation Foundation (DGMIF), made to order
- Test: Differential scanning fluorimetry (DSF) binding affinity to GDP-KRAS G12D mutant protein
- Condition details: DSF thermal shift, 10 μM compound, 4 μg KRAS protein
Outcome label depends on GDP-KRAS G12D (ΔTmD, ° C.) relative to 8 °C: at/above gives criterion met, below gives criterion not met.

> print(dat)
                                    molecule       answer.label
 1  C#Cc1c(F)ccc2cc(O)cc(-c3c(F)c4nc(OC[C@@]56CCCN5C[C@H](F)C6)nc(N5CC6CCC5CN6)c4c4cn(C)nc34)c12 (stereo partly shown)  criterion not met
 2  C#Cc1c(F)ccc2cc(O)cc(-c3cc4nc(OC[C@]56CC(=C)CN5C[C@@H](F)C6)nc(N5C[C@H]6CC[C@@H](C5)N6)c4n4ccnc34)c12      criterion met
 3  Cc1cc2c(o1)c(-c1cc(N)ccc1C(F)(F)F)c(F)c1nc(OC[C@@]34CCCN3C[C@H](F)C4)nc(N3CC4CCC(C3)N4)c12  criterion not met
 4  CCc1c(F)ccc2cc(O)cc(-c3c(F)c4nc(OC[C@@]56CCCN5C[C@H](F)C6)nc(N5C[C@H]6CC[C@@H](C5)N6)c4c4cn(C)nc34)c12      criterion met
 5  C#Cc1c(F)ccc2cc(O)cc(-c3cc4nc(OC[C@@]56CCCN5C[C@H](F)C6)nc(N5C[C@H]6CC[C@@H](C5)N6)c4c4cc(C)oc34)c12      criterion met
 6  CCc1c(F)ccc2cc(O)cc(-c3cc4nc(OC[C@@]56CCCN5CC(=C(F)F)C6)nc(N5C[C@H]6CC[C@@H](C5)N6)c4n4ccnc34)c12      criterion met
 7  C#Cc1c(F)ccc2cc(O)cc(-c3cc4nc(OC[C@@]56CCCN5C/C(=C\F)C6)nc(N5C[C@H]6CC[C@@H](C5)N6)c4n4ccnc34)c12      criterion met
 8  C#Cc1c(F)ccc2cc(O)cc(-c3cc4nc(OCC5(CN6CCCC6)CC5)nc(N5C[C@H]6CC[C@@H](C5)N6)c4n4ccnc34)c12      criterion met
 9  C#Cc1c(F)ccc2cc(O)cc(-c3cc4nc(OCC5(CN6CCC7(CC6)CC7(F)F)CC5)nc(N5C[C@H]6CC[C@@H](C5)N6)c4n4ccnc34)c12      criterion met
10  Nc1nc2c(-c3cc4nc(OC[C@@]56CCCN5C[C@H](F)C6)nc(N5C[C@H]6CC[C@@H](C5)N6)c4n4ccnc34)ccc(F)c2s1  criterion not met
11  C#Cc1c(F)ccc2cc(O)cc(-c3cc4nc(OCC5(CN6CCOC[C@H]6C)CC5)nc(N5C[C@H]6CC[C@@H](C5)N6)c4n4ccnc34)c12      criterion met
12  C#Cc1c(F)ccc2cc(O)cc(-c3cc4nc(OC[C@]56CC(=C)CN5C[C@@H](F)C6)nc(N5CC6CCC(C5)N6)c4n4ccnc34)c12      criterion met
13  C#Cc1c(F)ccc2cc(O)cc(-c3c(F)c4nc(OC[C@]56CC(=C)CN5C[C@@H](F)C6)nc(N5C[C@H]6CC[C@@H](C5)N6)c4c4cc(C)oc34)c12      criterion met
14  C#Cc1c(F)ccc2cc(O)cc(-c3cc4nc(OC[C@]56CCCN5CC(=C)C6)nc(N5C[C@H]6CC[C@@H](C5)N6)c4n4ccnc34)c12  criterion not met
15  C#Cc1c(F)ccc2cc(O)cc(-c3cc4nc(OC[C@@]56CCCN5C[C@H](F)C6)nc(N5C[C@H]6CC[C@@H](C5)N6)c4n4ccnc34)c12      criterion met
16  Cn1cc2c(n1)c(-c1cc(O)cc3ccc(F)c(F)c13)c(F)c1nc(OC[C@@]34CCCN3C[C@H](F)C4)nc(N3C[C@H]4CC[C@@H](C3)N4)c12      criterion met
17  C#Cc1c(F)ccc2cccc(-c3cc4nc(OC[C@@]56CCCN5C/C(=C\F)C6)nc(N5C[C@H]6CC[C@@H](C5)N6)c4c4cn(C)nc34)c12  criterion not met
18  CCc1c(F)ccc2cc(O)cc(-c3c(F)c4nc(OC[C@@]56CCCN5C/C(=C\F)C6)nc(N5C[C@H]6CC[C@@H](C5)N6)c4c4cn(C)nc34)c12      criterion met
19  Nc1c(F)c(F)c(F)c(-c2cc3nc(OC[C@@]45CCCN4C[C@H](F)C5)nc(N4C[C@H]5CC[C@@H](C4)N5)c3n3ccnc23)c1F  criterion not met
20  Nc1nc2c(-c3cc4nc(OC[C@@]56CCCN5C[C@H](F)C6)nc(N5[C@@H]6CC[C@H]5CNC6)c4n4ccnc34)ccc(F)c2s1  criterion not met
21  C#Cc1c(F)ccc2cc(O)cc(-c3c(F)c4nc(OC[C@@]56CCCN5C/C(=C\F)C6)nc(N5C[C@H]6CC[C@@H](C5)N6)c4c4cn(C)nc34)c12      criterion met
